target: human PCSK9 (Homo sapiens, UniProt Q8NBP7); assay: PCSK9 ligand binding TR-FRET assay (interference with binding of human PCSK9 to human LDLR); settings: TR-FRET; human PCSK9 Alexa Fluor 647 / human LDLR extracellular domain-Europium Kryptate; read-out: PCSK9 FRET Assay IC50
Sequence (Q8NBP7 153-692): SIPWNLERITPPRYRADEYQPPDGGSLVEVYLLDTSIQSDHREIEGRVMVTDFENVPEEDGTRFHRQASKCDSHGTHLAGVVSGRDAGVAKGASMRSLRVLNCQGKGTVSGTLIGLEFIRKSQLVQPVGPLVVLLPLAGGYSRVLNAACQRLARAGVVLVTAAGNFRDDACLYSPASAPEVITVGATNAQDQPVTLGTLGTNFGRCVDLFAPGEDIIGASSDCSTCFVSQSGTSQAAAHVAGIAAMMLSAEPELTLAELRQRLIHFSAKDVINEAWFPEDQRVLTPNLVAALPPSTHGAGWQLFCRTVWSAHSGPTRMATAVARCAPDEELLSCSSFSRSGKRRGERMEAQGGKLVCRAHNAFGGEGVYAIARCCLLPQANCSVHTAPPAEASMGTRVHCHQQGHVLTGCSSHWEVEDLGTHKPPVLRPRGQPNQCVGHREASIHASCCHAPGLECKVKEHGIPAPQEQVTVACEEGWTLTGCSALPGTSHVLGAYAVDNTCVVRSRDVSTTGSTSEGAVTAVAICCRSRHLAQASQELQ
Sequence (Q8NBP7 31-152 partner limits assumed): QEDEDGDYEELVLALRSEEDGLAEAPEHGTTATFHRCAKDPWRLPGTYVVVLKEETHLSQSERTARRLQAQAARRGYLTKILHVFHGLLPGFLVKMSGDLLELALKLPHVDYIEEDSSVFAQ
pIC50: −log10 of the molar value.
attribute.measured: pIC50

>>> result("COC[C@@H]1NC(=O)[C@H](C)N(Cc2ccc(Cl)cc2Oc2ccc(-c3cnc(CN4CCCC4)n3C)cc2)C(=O)C[C@@H](Cc2ccc(F)c(F)c2)C(=O)N(C)[C@@H](C)CNC(=O)C[C@H](Cc2ccc(Cl)cc2)N(C)C1=O")
8.25
>>> result("COC[C@@H]1NC(=O)[C@H](C)N(Cc2c(Oc3ccc(-c4cnc(CN(C)C)n4C)cc3)cccc2OC(F)F)C(=O)CCC(=O)N(C)[C@H]2CCCC[C@@H]2NC(=O)C[C@H](Cc2ccc(Cl)cc2)N(C)C1=O")
8.52
>>> result("COC[C@@H]1NC(=O)[C@H](C)N(Cc2ccc(Cl)cc2Oc2ccc(-c3cnc(CN4CCOCC4)n3C)cc2)C(=O)C[C@@H](Cc2ccccc2)C(=O)N(C)[C@@H](C)CNC(=O)C[C@H](Cc2ccc(Cl)cc2)N(C)C1=O")
8.70
>>> result("COC[C@@H]1NC(=O)[C@H](C)N(Cc2ccc(Cl)cc2Oc2ccc(-c3cnc(CN(C)C)n3C)cc2)C(=O)C[C@@H](CC23CC(C2)C3)C(=O)N(C)[C@H]2CCCC[C@@H]2NC(=O)C[C@H](Cc2ccc(Cl)cc2)N(C)C1=O")
8.27
>>> result("COC[C@@H]1NC(=O)[C@H](C)N(Cc2ccc(Cl)cc2Oc2ccc(-n3cnc(C(=O)NC(C)C)c3C)cc2)C(=O)C[C@@H](Cc2ccccc2)C(=O)N(C)[C@@H](C)CNC(=O)C[C@H](Cc2ccc(Cl)cc2)N(C)C1=O")
6.87
>>> result("COC[C@@H]1NC(=O)[C@H](CCCN2CCCC2=O)N(Cc2ccc(Cl)cc2Oc2ccc(-c3cnc(CN(C)C)n3C)cc2)C(=O)C[C@@H](Cc2ccccc2)C(=O)N(C)[C@H]2CCCC[C@@H]2NC(=O)C[C@H](Cc2ccc(Cl)cc2)N(C)C1=O")
8.92
>>> result("COC[C@@H]1NC(=O)[C@H](C)N(Cc2ccc(Cl)cc2Oc2ccc(-c3cnc(OC)n3C)cc2)C(=O)C[C@@H](Cc2ccccc2)C(=O)N(C)[C@@H](C)CNC(=O)C[C@H](Cc2ccc(Cl)cc2)N(C)C1=O")
7.76
>>> result("COC[C@@H]1NC(=O)[C@H](CCCN2CCOCC2)N(Cc2ccc(Cl)cc2Oc2ccc(-c3cnc(CN(C)C)n3C)cc2)C(=O)C[C@@H](Cc2ccccc2)C(=O)N(C)[C@H]2CCCC[C@@H]2NC(=O)C[C@H](Cc2ccc(Cl)cc2)N(C)C1=O")
8.92

----------
target: UniProt:Q8NBP7; experiment: PCSK9 ligand binding TR-FRET assay (interference with binding of human PCSK9 to human LDLR); conditions: PCSK9 FRET assay, efficacy (Amax); 100% = 1 uM unlabeled human PCSK9, 0% = DMSO
Overview of reported Max % inhibition across a group of compounds:
attribute.measured: Max % inhibition (%)

>>> result("COC[C@@H]1NC(=O)[C@H](C)N(Cc2ccc(Cl)cc2Oc2ccc(-c3cnc(CN(C)C)n3C)cc2)C(=O)CN2C[C@H](CNC(=O)C[C@H](Cc3ccc(Cl)cc3)N(C)C1=O)N(C)C2=O")
104.70
>>> result("COC[C@@H]1NC(=O)[C@H](COC)N(Cc2ccc(Cl)cc2Oc2ccc(-c3cnc(CN(C)C)n3C)cc2)C(=O)C[C@@H](Cc2ccccc2)C(=O)N(C)[C@H]2CCCC[C@@H]2NC(=O)C[C@H](Cc2ccc(Cl)cc2)N(C)C1=O")
100.63
>>> result("COC[C@@H]1NC(=O)[C@H](C)N(Cc2ccc(Cl)cc2Oc2ccc(-c3cncc(CN4CCCC4)c3C)cc2)C(=O)C[C@@H](Cc2ccccc2)C(=O)N(C)[C@@H](C)CNC(=O)C[C@H](Cc2ccc(Cl)cc2)N(C)C1=O")
54.20
>>> result("COC[C@@H]1NC(=O)[C@H](C)N(Cc2ccc(Cl)cc2Oc2cccc(C(=O)NC3CCNCC3)c2)C(=O)C[C@@H](Cc2ccccc2)C(=O)N(C)[C@@H](C)CNC(=O)C[C@H](Cc2ccc(Cl)cc2)N(C)C1=O")
53.35
>>> result("COC[C@@H]1NC(=O)[C@H](C)N(Cc2ccc(Cl)cc2Oc2ccc(-c3nnc4n3CCNC4)cc2)C(=O)C[C@@H](Cc2ccccc2)C(=O)N(C)[C@@H](C)CNC(=O)C[C@H](Cc2ccc(Cl)cc2)N(C)C1=O")
57.46
>>> result("C[C@H]1CNC(=O)C[C@H](Cc2ccc(Cl)cc2)N(C)C(=O)[C@H](CO)NC(=O)[C@H](C)N(Cc2ccccc2OCC(=O)N2Cc3cccnc3C2)C(=O)C[C@@H](Cc2ccccc2)C(=O)N1C (stereo in doubt)")
49.36
>>> result("C[C@H]1C(=O)N[C@@H](CO)C(=O)N(C)[C@@H](Cc2ccc(Cl)cc2)CC(=O)N[C@H]2CCCC[C@@H]2N(C)C(=O)[C@H](Cc2ccccc2)CC(=O)N1Cc1ccc(Cl)cc1Oc1ccc(-c2cnc(CN(C)C)n2C)cc1")
97.38
>>> result("COC[C@@H]1NC(=O)[C@H](CCCN2CCCC2)N(Cc2ccc(Cl)cc2Oc2ccc(-c3cnc(CN(C)C)n3C)cc2)C(=O)C[C@@H](Cc2cccc[n+]2[O-])C(=O)N(C)[C@H]2CCCC[C@@H]2NC(=O)C[C@H](Cc2ccc(Cl)cc2)N(C)C1=O")
103.17
>>> result("COC[C@@H]1NC(=O)[C@H](C)N(Cc2ccc(Cl)cc2Oc2ccc(-c3cnc4n3CCNC4)cc2)C(=O)C[C@@H](Cc2ccccc2)C(=O)N(C)[C@@H](C)CNC(=O)C[C@H](Cc2ccc(Cl)cc2)N(C)C1=O.O=C(O)C(F)(F)F")
59.89
>>> result("COC[C@@H]1NC(=O)[C@H](C)N(Cc2ccc(Cl)cc2Oc2ccc(-c3cnc([C@@H](C)N(C)C)n3C)cc2)C(=O)C[C@@H](Cc2ccccc2)C(=O)N(C)[C@H]2CCCC[C@@H]2NC(=O)C[C@H](Cc2ccc(Cl)cc2)N(C)C1=O")
109.94
>>> result("CC[C@H]1C(=O)N[C@@H](COC)C(=O)N(C)[C@@H](Cc2ccc(Cl)cc2)CC(=O)NC[C@H](C)N(C)C(=O)[C@H](Cc2ccccc2)CC(=O)N1Cc1ccc(Cl)cc1Oc1ccc(-c2cnc(CN(C)C)n2C)cc1")
101.10
>>> result("COC[C@@H]1NC(=O)[C@H](CCC(=O)N2CC3(COC3)C2)N(Cc2ccc(Cl)cc2Oc2ccc(-c3cnc(CN(C)C)n3C)cc2)C(=O)C[C@@H](Cc2ccccc2)C(=O)N(C)[C@@H](C)CNC(=O)C[C@H](Cc2ccc(Cl)cc2)N(C)C1=O")
104.58
>>> result("COC[C@@H]1NC(=O)[C@H](CCCN2CCOCC2)N(Cc2ccc(Cl)cc2Oc2ccc(-c3cnc(CN4CCCC4)n3C)cc2)C(=O)C[C@@H](Cc2ccccc2)C(=O)N(C)[C@H]2CCCC[C@@H]2NC(=O)C[C@H](Cc2ccc(Cl)cc2)N(C)C1=O")
92.00
>>> result("COC[C@@H]1NC(=O)[C@H](C)N(Cc2ccc(Cl)cc2Oc2ccc(-c3cnc(CN(C)C)n3C)cc2)C(=O)C[C@@H](Cc2ccccc2)C(=O)N(C)[C@@H](C(=O)OC)CNC(=O)C[C@H](Cc2ccc(Cl)cc2)N(C)C1=O")
102.12
>>> result("COC[C@@H]1NC(=O)[C@H](CC(=O)N2CCOCC2)N(Cc2ccc(Cl)cc2Oc2ccc(-c3cnc(CN(C)C)n3C)cc2)C(=O)C[C@@H](Cc2ccccc2)C(=O)N(C)[C@H]2CCCC[C@@H]2NC(=O)C[C@H](Cc2ccc(Cl)cc2)N(C)C1=O")
98.33
>>> result("COC[C@@H]1NC(=O)[C@H](CCCN)N(Cc2ccc(Cl)cc2Oc2ccc(-c3cnc(CN(C)C)n3C)cc2)C(=O)C[C@@H](Cc2ccccc2)C(=O)N(C)[C@@H](C)CNC(=O)C[C@H](Cc2ccc(Cl)cc2)N(C)C1=O")
97.97
